The reported measurements were obtained from ChEMBL document CHEMBL1138545.

System: Staphylococcus aureus
protocol_description: Antibacterial activity against Staphylococcus aureus ATTC […] after 24 hrs by the disk diffusion method
Assay type: functional
study_conditions: Staphylococcus aureus, 24 h
Documented MIC across a set of molecules
quantity_name: MIC (µg/mL)

CSc1ccc(Cc2nnc3sc(-c4ccc(-c5cc(Cl)ccc5Cl)o4)nn23)cc1
25
CSc1ccc(Cc2nnc3sc(-c4cc(F)c(Cl)cc4Cl)nn23)cc1
12.5
CSc1ccc(Cc2nnc3sc(-c4ccc(-c5ccc([N+](=O)[O-])cc5)o4)nn23)cc1
25
CSc1ccc(Cc2nnc3sc(-c4ccc(-c5ccc(Cl)cc5[N+](=O)[O-])o4)nn23)cc1
12.5
CSc1ccc(Cc2nnc3sc(-c4ccc(-c5ccccc5C(F)(F)F)o4)nn23)cc1
12.5
CSc1ccc(Cc2nnc3sc(-c4ccc([N+](=O)[O-])cc4)nn23)cc1
12.5
CSc1ccc(Cc2nnc3sc(-c4ccc(F)cc4)nn23)cc1
12.5
CSc1ccc(Cc2nnc3sc(-c4ccc([N+](=O)[O-])cc4Cl)nn23)cc1
12.5
CSc1ccc(Cc2nnc3sc(Cc4ccccc4)nn23)cc1
25
CSc1ccc(Cc2nnc3sc(-c4ccc(Br)cc4)nn23)cc1
25
CSc1ccc(Cc2nn3c(Cc4ccc(SC)cc4)nnc3s2)cc1
12.5
CSc1ccc(Cc2nnc3sc(-c4ccc(-c5ccc(Br)cc5)o4)nn23)cc1
25
COc1ccc(-c2ccc(-c3nn4c(Cc5ccc(SC)cc5)nnc4s3)o2)cc1
25
COc1ccc(-c2ccc(-c3nn4c(Cc5ccc(SC)cc5)nnc4s3)o2)c([N+](=O)[O-])c1
25
CSc1ccc(Cc2nnc3sc(-c4ccc(-c5cc(Cl)c(Cl)cc5Cl)o4)nn23)cc1
25
CSc1ccc(Cc2nnc3sc(-c4cc(Cl)ccc4Cl)nn23)cc1
25
CSc1ccc(Cc2nnc3sc(-c4ccc(-c5ccc(C)cc5)o4)nn23)cc1
12.5
CSc1ccc(Cc2nnc3sc(-c4ccc(-c5ccc(Cl)cc5)o4)nn23)cc1
12.5
CSc1ccc(Cc2nnc3sc(-c4ccc(O)cc4)nn23)cc1
25
CSc1ccc(Cc2nnc3sc(-c4ccc(Cl)c(Cl)c4Cl)nn23)cc1
12.5
